Provenance of the data: patent US20260159512A1

Target: BCAT2 (Homo sapiens, UniProt O15382)
Sequence (O15382 28-392): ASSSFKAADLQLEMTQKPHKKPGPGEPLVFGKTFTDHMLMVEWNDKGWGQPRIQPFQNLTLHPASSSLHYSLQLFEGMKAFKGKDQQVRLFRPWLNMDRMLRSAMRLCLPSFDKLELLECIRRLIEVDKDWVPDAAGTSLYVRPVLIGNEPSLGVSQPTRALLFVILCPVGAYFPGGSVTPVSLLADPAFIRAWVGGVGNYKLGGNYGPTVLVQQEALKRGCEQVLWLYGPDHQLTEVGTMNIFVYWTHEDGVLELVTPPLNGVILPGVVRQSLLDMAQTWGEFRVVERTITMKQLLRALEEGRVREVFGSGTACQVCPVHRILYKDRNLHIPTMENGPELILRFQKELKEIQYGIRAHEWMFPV
Assay: BCAT2 in vitro enzyme inhibition assay (resazurin/diaphorase-coupled fluorescence)
Format: biochemical
Details: average where tested multiple times
MEASUREMENT_KIND: IC50

INSERT INTO results (molecule, result) VALUES
  ('CN1C[C@H](NC(=O)c2ncc(Cl)s2)C[C@H](n2c(-c3ccccc3F)nc3cnc(-c4nc[nH]n4)cc32)C1 (single isomer, unassigned) [Example 134]', '≤ 100 nM');

Challenge: What value of IC50 has been recorded for this entry: CO[C@H]1C[C@H](NC(=O)c2ncc(Cl)s2)C[C@H](n2c(CC(C)C)nc3cnc(-c4nc(C)co4)cc32)C1 [Example 409]
Response given: ≤ 100 nM

Challenge: # IC50 lookup, item CO[C@@H]1C[C@@H](NC(=O)c2ncc(Cl)s2)C[C@@H](n2c(-c3ccccc3F)nc3cnc(-c4nc[nH]n4)cc32)C1 (single isomer, unassigned) [Example 219]
Response given: 100 to 500 nM

Challenge: I would be grateful if you could share the reported IC50 for CC(=O)N1CC(NC(=O)c2ccc(Br)s2)CC(n2c(-c3ncccc3F)nc3cc(-c4nnco4)ccc32)C1 (stereo not shown) [Example 283] .
Response given: ≤ 100 nM

Challenge: I'd like to know its IC50. The molecule in question is COc1ccc(-c2nc3cnc(-c4nc[nH]n4)cc3n2[C@@H]2CCC[C@H](NC(=O)c3ccc(Cl)s3)C2)c(F)c1 [Example 351]
Response given: 100 to 500 nM

Challenge: # lookup: IC50 of CC(=O)N1C[C@H](NC(=O)c2ncc(C(F)F)s2)C[C@H](n2c(-c3ccccc3F)nc3cnc(-c4ncco4)cc32)C1 [Example 128]
Response given: ≤ 100 nM

Challenge: Requested read-out: IC50. Entry: CC(C)Cc1nc2cnc(-c3ncccn3)cc2n1[C@H]1C[C@H](O)C[C@@H](NC(=O)c2ncc(Cl)s2)C1 (stereo in doubt) [Example 398]
Response given: ≤ 100 nM

Challenge: State the recorded IC50 for this entry: C#Cc1ccc(C(=O)NC2CC(n3c(-c4ccccc4F)nc4cc(C(=O)NC)c(OC)cc43)CN(C)C2)s1 (stereo not shown) [Example 292]
Response given: ≤ 100 nM

Challenge: Sample Nc1cccc(-c2cc3c(cn2)nc(-c2ccccc2F)n3[C@@H]2CCC[C@H](NC(=O)c3ncc(Cl)s3)C2)n1 [Example 105] — what was its IC50?
Response given: ≤ 100 nM

----------
target: BCAT2 (Homo sapiens, UniProt O15382); assay: BCAT2 in vitro cell inhibition using engineered A549 cells (KMV cell assay, 13C6-KMV by LC-MS/MS); type: cell-based; parameters: The result was an engineered A549 cell line that expressed endogenous BCAT2; endogenous in cells; host or cells: A549 cells with MUT and BCAT1 knocked out by CRISPR/CAS9; settings: average where tested multiple times
MEASUREMENT_KIND: IC50

INSERT INTO measurements (compound, measurement_kind, result) VALUES
  ('O=C(N[C@H]1CCC[C@@H](n2c(-c3ccccc3F)nc3cnc(-c4cccnn4)cc32)C1)c1ncc(Cl)s1', 'IC50', '100 to 500 nM'),
  ('COCc1nc2cnc(-c3nc[nH]n3)cc2n1[C@@H]1CCC[C@H](NC(=O)c2ncc(Cl)s2)C1', 'IC50', '> 1000 nM'),
  ('C=Cc1csc(C(=O)N[C@H]2CCC[C@@H](n3c(-c4ccccc4F)nc4cnc(-c5nc[nH]n5)cc43)C2)n1', 'IC50', '500 to 1000 nM'),
  ('O=C(N[C@H]1CCC[C@@H](n2c(-c3ccccc3F)nc3cnc(-c4noc(=O)[nH]4)cc32)C1)c1ncc(Cl)s1', 'IC50', '≤ 100 nM'),
  ('CC(C)Cc1nc2cnc(-c3cccc(F)n3)cc2n1[C@@H]1CCC[C@H](NC(=O)c2ncc(Cl)s2)C1', 'IC50', '500 to 1000 nM'),
  ('CC(C)Cc1nc2cnc(-c3cccc(F)n3)cc2n1[C@H]1C[C@H](O)C[C@@H](NC(=O)c2ncc(Cl)s2)C1 (stereo in doubt)', 'IC50', '100 to 500 nM'),
  ('COC(=O)N1C[C@H](NC(=O)c2ccc(Cl)s2)C[C@H](n2c(-c3ccccc3F)nc3cnc(-c4nc[nH]n4)cc32)C1', 'IC50', '≤ 100 nM');

As a next step, examine the compound that follows.
Challenge: Look at this compound and give its reported IC50. "O=C(N[C@H]1CCC[C@@H](n2c(Nc3ccccn3)nc3cnc(-n4nccn4)cc32)C1)c1ncc(C(F)F)s1"
Response given: > 1000 nM

----------
Molecular target: BCAT2 (Homo sapiens, UniProt O15382)
Sequence (O15382 28-392): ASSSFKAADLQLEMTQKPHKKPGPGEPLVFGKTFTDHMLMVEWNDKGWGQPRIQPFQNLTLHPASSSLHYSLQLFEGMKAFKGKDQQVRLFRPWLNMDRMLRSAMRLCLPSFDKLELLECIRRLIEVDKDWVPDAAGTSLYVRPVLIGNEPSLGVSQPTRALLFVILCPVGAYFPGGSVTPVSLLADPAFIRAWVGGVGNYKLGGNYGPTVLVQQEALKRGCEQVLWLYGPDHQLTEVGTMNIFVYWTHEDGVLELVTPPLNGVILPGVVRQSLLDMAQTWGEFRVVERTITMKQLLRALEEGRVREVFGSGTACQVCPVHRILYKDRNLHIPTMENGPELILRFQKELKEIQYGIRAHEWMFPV
Experiment: BCAT2 in vitro enzyme inhibition assay (resazurin/diaphorase-coupled fluorescence)
Format: biochemical
Details: average where tested multiple times
pIC50: −log10 of the molar value.
MEASUREMENT_KIND: pIC50

INSERT INTO results (molecule, result) VALUES
  ('CC(C)[C@@H](O)c1nc2cnc(-c3ncccn3)cc2n1[C@@H]1CCC[C@H](NC(=O)c2ncc(Cl)s2)C1', '≥ 7.00'),
  ('C[C@H]1CCCN1c1cc2c(cn1)nc(-c1ccccc1F)n2[C@@H]1CCC[C@H](NC(=O)c2ncc(Cl)s2)C1', '6.00 to 6.30'),
  ('O=C(N[C@H]1CCC[C@@H](n2c(-c3ccccc3O)nc3cnc(-n4nccn4)cc32)C1)c1ncc(Cl)s1', '≥ 7.00'),
  ('COc1ccccc1-c1nc2cnc(-c3nc[nH]n3)cc2n1[C@@H]1CCC[C@H](NC(=O)c2ncc(Cl)s2)C1', '≥ 7.00'),
  ('O=C(N[C@H]1CCC[C@@H](n2c(-c3ccccc3F)nc3cnc(-c4ccccn4)cc32)[C@@H]1O)c1ncc(Cl)s1', '≥ 7.00'),
  ('CC(C)(F)Cc1nc2cnc(-c3ccccn3)cc2n1[C@@H]1CCC[C@H](NC(=O)c2ncc(Cl)s2)C1', '≥ 7.00');

Challenge: Using the record for "CO[C@H]1C[C@H](NC(=O)c2ncc(Cl)s2)C[C@H](n2c(-c3ccccc3F)nc3cnc(N4CCC[C@H]4CO)cc32)C1" , report its pIC50.
Response given: ≥ 7.00

Challenge: Which pIC50 is reported for this molecule? "O=C(N[C@@H]1C[C@@H](O)C[C@H](n2c(-c3ccccc3F)nc3cnc(-c4nc[nH]n4)cc32)C1)c1ccc(Cl)s1"
Response given: ≥ 7.00

Challenge: Fill in the blank: the reported pIC50 of O=C(N[C@H]1CCCC[C@@H](n2c(-c3ccccc3F)nc3cnc(-c4nnc[nH]4)cc32)C1)c1ncc(Cl)s1 (single isomer, unassigned) is ____.
Response given: ≥ 7.00

Challenge: Which pIC50 reading was recorded for the molecule O=C(NC1CCC(n2c(-c3ccccn3)nc3cnc(-n4nccn4)cc32)C1)c1ccc(Br)s1 (stereo not shown) ?
Response given: 6.30 to 7.00

Challenge: Recorded pIC50 for "O=C(N[C@H]1CCC[C@@H](n2c(-c3ccccc3F)nc3ccc(-c4ncco4)cc32)[C@@H]1O)c1ncc(Cl)s1" , please?
Response given: ≥ 7.00

Challenge: I'd like to know its pIC50. The molecule in question is "O=C(N[C@H]1CCC[C@@H](n2c(-c3ccccn3)nc3cnc(-c4nn[nH]n4)cc32)C1)c1ncc(C(F)F)s1"
Response given: ≥ 7.00

Challenge: So what does the record say about pIC50 for "CC(=O)N[C@H](c1nc2cnc(-c3nc[nH]n3)cc2n1[C@@H]1CCC[C@H](NC(=O)c2ncc(Cl)s2)C1)C(C)C" ?
Response given: < 6.00

Challenge: Bench note: what pIC50 did "O=C(N[C@@H]1CCC[C@H](n2c(-c3ccccc3F)nc3cnc(-c4ncco4)cc32)[C@H]1O)c1ncc(Cl)s1" show?
Response given: 6.30 to 7.00

Challenge: # lookup: pIC50 of "O=C(N[C@H]1CCC[C@@H](n2c(-c3ccccc3F)nc3cnc(-n4nccn4)nc32)C1)c1ncc(C(F)F)s1"
Response given: ≥ 7.00

Challenge: Give its pIC50 value. Item: "O=C(N[C@H]1CCC[C@@H](n2c(-c3ccccc3OCCO)nc3cnc(-c4nc[nH]n4)cc32)C1)c1ncc(Cl)s1"
Response given: ≥ 7.00
